Readings of minimum inhibitory concentration for the listed molecules
Tested on: Mannheimia haemolytica
Assay: minimum inhibitory concentration (MIC)
Conditions: isolate (source animal id): 262
Use µg/mL as the unit, but write only the number.

{"molecule": "CNC(C)C1CCC(N)C(OC2C(N)CC(N)C(OC3OCC(C)(O)C(NC)C3O)C2O)O1 (stereo not given) [Gentamicin]", "metric_name": "minimum inhibitory concentration", "recorded_value": 2}

query: Which minimum inhibitory concentration reading was recorded for the molecule CN[C@@H]1[C@H](O)[C@H](NC)[C@H]2O[C@@]3(O)C(=O)C[C@@H](C)O[C@H]3O[C@@H]2[C@H]1O [Spectinomycin] ?
result: 32

###

Test system: Escherichia coli
Experiment: minimum inhibitory concentration (MIC)
Settings: isolate (source animal id): 118
metric_name: minimum inhibitory concentration

A selection of reference data follows.
{"smiles_notation": "COc1cc(Cc2cnc(N)nc2N)cc(OC)c1OC.Cc1cc(NS(=O)(=O)c2ccc(N)cc2)no1", "metric_name": "minimum inhibitory concentration", "recorded_value": "≤ 2 µg/mL"}
{"smiles_notation": "CC[C@H]1OC(=O)C[C@@H](O)[C@H](C)[C@@H](O[C@@H]2O[C@H](C)[C@@H](O[C@H]3C[C@@](C)(O)[C@@H](O)[C@H](C)O3)[C@H](N(C)C)[C@H]2O)[C@@H](CC=O)C[C@@H](C)C(=O)/C=C/C(C)=C/[C@@H]1CO[C@@H]1O[C@H](C)[C@@H](O)[C@@H](OC)[C@H]1OC", "metric_name": "minimum inhibitory concentration", "recorded_value": "> 32 µg/mL"}
{"smiles_notation": "CS(=O)(=O)c1ccc([C@@H](O)[C@@H](CF)NC(=O)C(Cl)Cl)cc1", "metric_name": "minimum inhibitory concentration", "recorded_value": "> 8 µg/mL"}
{"smiles_notation": "CO/N=C(\\C(=O)N[C@@H]1C(=O)N2C(C(=O)O)=C(CSC(=O)c3ccco3)CS[C@H]12)c1csc(N)n1", "metric_name": "minimum inhibitory concentration", "recorded_value": "0.5 µg/mL"}

For the next question, use this compound.
query: Which minimum inhibitory concentration reading was recorded for the compound CC[C@H]1OC(=O)C[C@@H](O)[C@H](C)[C@@H](O[C@@H]2O[C@H](C)[C@@H](O)[C@H](N(C)C)[C@H]2O)[C@@H](CCN2C[C@H](C)C[C@H](C)C2)C[C@@H](C)C(=O)/C=C/C(C)=C/[C@@H]1CO[C@@H]1O[C@H](C)[C@@H](O)[C@@H](OC)[C@H]1OC ?
result: > 16 µg/mL

###

System: Mannheimia haemolytica
Assay: minimum inhibitory concentration (MIC)
Conditions: isolate (source animal id): 259
metric_name: minimum inhibitory concentration

A selection of reference data follows.
{"molecule": "CC1(C)S[C@@H]2[C@H](NC(=O)Cc3ccccc3)C(=O)N2[C@H]1C(=O)O [Penicillin]", "target_under_test": "Mannheimia haemolytica", "minimum inhibitory concentration": "> 8 µg/mL"}
{"molecule": "CC[C@H]1OC(=O)C[C@@H](O)[C@H](C)[C@@H](O[C@@H]2O[C@H](C)[C@@H](O)[C@H](N(C)C)[C@H]2O)[C@@H](CCN2CCCCC2)C[C@@H](C)C(=O)/C=C/C(C)=C/[C@@H]1CN1CCCCC1 [Tildipirosin]", "target_under_test": "Mannheimia haemolytica", "minimum inhibitory concentration": "> 16 µg/mL"}

query: Which minimum inhibitory concentration reading was recorded for the molecule C=C[C@]1(C)C[C@@H](OC(=O)CSCCN(CC)CC)[C@]2(C)[C@H](C)CC[C@]3(CCC(=O)[C@H]32)[C@@H](C)[C@@H]1O [Tiamulin] ?
result: 16 µg/mL
